Target: Cholinesterase (Equus caballus, UniProt P81908)
Assay: Uncompetitive inhibition of equine serum BChE using varying levels of […] chloride as substrate by Lineweaver-Burk plot analysis
This listing pairs compounds with measured pKi.
# reply with the number alone; pKi is -log10 of concentration in mol/L

In: Entry under review: `O=C(Nc1c(Cl)cccc1Cl)c1ccccc1Br` . Reported pKi?
Out: 5.62

In: Entry under review: `O=C(Nc1c(Cl)cccc1Cl)c1ccc(F)cc1F` . Reported pKi?
Out: 4.56

In: Entry under review: `O=C(Nc1c(Cl)cccc1Cl)c1c(F)cccc1F` . Reported pKi?
Out: 5.25

In: Entry under review: `COc1cc(C(=O)Nc2c(Cl)cccc2Cl)cc(OC)c1OC` . Reported pKi?
Out: 4.63

* * *

Target: Cholinesterase (Equus caballus) (UniProt P81908)
Sequence (P81908 whole entry): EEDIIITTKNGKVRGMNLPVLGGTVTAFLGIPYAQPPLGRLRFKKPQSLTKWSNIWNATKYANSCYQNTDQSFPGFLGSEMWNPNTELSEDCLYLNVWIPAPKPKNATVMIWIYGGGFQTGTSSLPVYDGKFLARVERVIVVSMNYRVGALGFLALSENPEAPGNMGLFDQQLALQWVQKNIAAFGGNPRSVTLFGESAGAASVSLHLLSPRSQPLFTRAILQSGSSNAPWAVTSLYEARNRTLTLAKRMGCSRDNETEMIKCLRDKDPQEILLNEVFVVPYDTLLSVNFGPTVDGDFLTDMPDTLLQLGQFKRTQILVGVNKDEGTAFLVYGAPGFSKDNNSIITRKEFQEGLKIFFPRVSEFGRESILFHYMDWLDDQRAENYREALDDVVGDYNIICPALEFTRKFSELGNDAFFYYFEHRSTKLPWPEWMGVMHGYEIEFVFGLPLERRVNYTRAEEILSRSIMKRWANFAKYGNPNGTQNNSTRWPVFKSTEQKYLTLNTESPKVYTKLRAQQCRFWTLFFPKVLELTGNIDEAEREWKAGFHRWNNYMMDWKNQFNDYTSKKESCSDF
Assay: Inhibition of equine serum BChE using […] chloride as substrate preincubated for 15 mins followed by substrate addition and measured after 15 mins under dark condition by Ellman's method relative to control
Set-up: concentration or dose not given beside the values
readout.name: inhibition (%)
State the answer as a number, implicitly in %.

line.notation: COc1cc(C(=O)Nc2c(Cl)cccc2Cl)cc(OC)c1OC
assay.target: Cholinesterase (Equus caballus) (UniProt P81908)
readout.number: 69.2
//
line.notation: O=C(Nc1c(Cl)cccc1Cl)c1ccccc1
assay.target: Cholinesterase (Equus caballus) (UniProt P81908)
readout.number: 100
//
line.notation: O=C(Nc1c(Cl)cccc1Cl)c1c(F)cccc1F
assay.target: Cholinesterase (Equus caballus) (UniProt P81908)
readout.number: 70.6
//
line.notation: CCOc1ccccc1C(=O)Nc1c(Cl)cccc1Cl
assay.target: Cholinesterase (Equus caballus) (UniProt P81908)
readout.number: 112
//
line.notation: COc1ccc(C(=O)Nc2c(Cl)cccc2Cl)cc1
assay.target: Cholinesterase (Equus caballus) (UniProt P81908)
readout.number: 90.7

In: Entry under review: `COc1cccc(C(=O)Nc2c(Cl)cccc2Cl)c1` . Reported inhibition?
Out: 95.2

In: Entry under review: `O=C(Nc1c(Cl)cccc1Cl)c1ccc(F)cc1` . Reported inhibition?
Out: 86.5

In: Entry under review: `O=C(Nc1c(Cl)cccc1Cl)c1ccccc1Br` . Reported inhibition?
Out: 88

In: Entry under review: `O=C(Nc1c(Cl)cccc1Cl)c1ccc(F)cc1F` . Reported inhibition?
Out: 80.7

In: Entry under review: `O=C(Nc1c(Cl)cccc1Cl)c1ccc(Br)cc1` . Reported inhibition?
Out: 84

In: Entry under review: `Cc1ccc(C(=O)Nc2c(Cl)cccc2Cl)cc1[N+](=O)[O-]` . Reported inhibition?
Out: 69.1

* * *

This listing pairs compounds with measured Activity.
Test system: NIH3T3
Experiment: Cytotoxicity against mouse 3T3 cells at 1 to 30 uM measured after 48 hrs by MTT assay relative to control
Format: cell-based
Conditions: nih3t3, 48 h
State the answer as a number, implicitly in %.

In: Entry under review: `O=C(Nc1c(Cl)cccc1Cl)c1c(F)cccc1F` . Reported Activity?
Out: 34

In: Entry under review: `O=C(Nc1c(Cl)cccc1Cl)c1ccc(Br)cc1` . Reported Activity?
Out: 49

In: Entry under review: `Cc1ccc(C(=O)Nc2c(Cl)cccc2Cl)cc1[N+](=O)[O-]` . Reported Activity?
Out: 40

In: Entry under review: `CCOc1ccccc1C(=O)Nc1c(Cl)cccc1Cl` . Reported Activity?
Out: 15
